Reference source for all entries: patent US9862717B2

Molecular target: CDK8/CycC (Homo sapiens)
Construct: purchased Invitrogen PV4402
Sequence (P49336 whole entry): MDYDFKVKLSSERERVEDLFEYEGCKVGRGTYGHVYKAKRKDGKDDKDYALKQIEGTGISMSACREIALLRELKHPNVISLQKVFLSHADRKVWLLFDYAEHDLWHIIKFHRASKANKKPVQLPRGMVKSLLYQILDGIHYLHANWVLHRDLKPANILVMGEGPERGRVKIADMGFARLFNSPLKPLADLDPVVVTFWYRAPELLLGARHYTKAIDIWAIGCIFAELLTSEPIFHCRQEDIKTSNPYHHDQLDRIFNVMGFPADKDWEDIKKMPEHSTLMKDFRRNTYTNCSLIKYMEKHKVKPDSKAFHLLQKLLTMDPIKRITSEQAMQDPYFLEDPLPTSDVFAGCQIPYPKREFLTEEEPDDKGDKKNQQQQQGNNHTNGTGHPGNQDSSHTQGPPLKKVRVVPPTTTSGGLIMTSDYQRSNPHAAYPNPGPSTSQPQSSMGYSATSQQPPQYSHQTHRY
Sequence (P24863 whole entry partner): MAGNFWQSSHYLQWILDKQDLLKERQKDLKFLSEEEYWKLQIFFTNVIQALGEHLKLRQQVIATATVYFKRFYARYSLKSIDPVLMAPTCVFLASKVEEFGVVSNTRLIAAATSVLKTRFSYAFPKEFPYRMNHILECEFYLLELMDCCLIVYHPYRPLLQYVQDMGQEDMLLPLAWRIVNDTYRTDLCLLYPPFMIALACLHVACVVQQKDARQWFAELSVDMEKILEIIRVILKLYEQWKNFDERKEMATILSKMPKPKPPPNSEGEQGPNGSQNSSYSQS
Experiment: FRET based Lanthascreen binding competition assay for CDK8 inhibitory activity
Conditions: IC50 [μM], CDK8 co-expressed with CycC; class symbols
readout_label: IC50

In [3]: df
Out[3]:
                                   molecule  readout_label      data_value
0  Nc1n[nH]c2ccc(C(=O)N3CC[C@@H]3c3ccc(F)cc3)cc12           IC50     0.1 to 1 µM
1  Nc1n[nH]c2ccc(C(=O)N3CCC[C@H]3c3ccc(F)cc3)cc12           IC50  0.01 to 0.1 µM
2  Cc1n[nH]c2ncc(C(=O)N3CCCC3c3ccc(Cl)cc3)cc12 (racemic)           IC50       < 0.01 µM
3  Nc1n[nH]c2ccc(C(=O)N3CCCC3c3ccc(Cl)cc3)cc12 (racemic)           IC50       < 0.01 µM
4  Cc1n[nH]c2ccc(C(=O)N3CC[C@H]3c3ccc(Cl)cc3)cc12           IC50       < 0.01 µM
5  Nc1n[nH]c2ccc(C(=O)N3CCCC3c3ccc(F)cc3)cc12 (centres unmarked)           IC50       < 0.01 µM
6  Nc1n[nH]c2ccc(C(=O)N3CCCC3c3ccc(Br)cc3)cc12 (centres unmarked)           IC50       < 0.01 µM
7  CNc1n[nH]c2ccc(C(=O)N3CCC[C@H]3c3ccc(Cl)cc3)cc12           IC50       < 0.01 µM
